Data provenance is the supplement of paper PMC10065799.

experimental-target: c-Src SH2
assay: SH2 binding enrichment of the phosphorylated peptide, bacterial display (enrichment ratio); higher = better substrate or ligand; peptides without Tyr show the background
observed-property: SH2 binding enrichment

Please review the following examples before continuing.
Data request: Return SH2 binding enrichment measured with c-Src SH2 given this sequence: WASGIYFVPKG [APBB1IP_Y340_R335W_YF]
Data returned: 0.848

Data request: For the record LLLLFCVVRFC [MPZ_Y177_Y177C_YF] , what value of SH2 binding enrichment is listed for c-Src SH2?
Data returned: 0.857

Data request: Give the reported SH2 binding enrichment for `PKDSAYVTWEP` (system: c-Src SH2).
Data returned: 0.487

1 = TAALWYIFSHT [ENG_Y612_YF]
2 = FDDGKYVFVVT [RPS6KA3_Y488_YF]
Data request: When their SH2 binding enrichment values are compared, which is larger, 1 or 2 ? // return label of chosen record
Data returned: 1
(1: 0.713, 2: 0.382)

a = LERYIYNPEEF [HLA-DPB1_Y59_R61P]
b = ATGGFYSFGGG [KRT24_Y120_YF]
c = YPKAHYHWLVL [APTX_Y214_R213H]
d = YDCGMYSHLQG [LGR4_Y848]
Data request: # rank by SH2 binding enrichment, ascending (min first) To answer, write out the labels according to the requested order.
Data returned: b, a, c, d
(b: 0.425, a: 0.677, c: 1.2, d: 2.85)

I = MCITQYKRESQ [PRNP_Y218_E219K]
II = DKATEYIQYVR [MAX_Y70_M74V]
III = DPGVSYHTREE [PDHA1_Y301_R302H]
Data request: Falling order of SH2 binding enrichment, please. List the labels according to the requested ordering.
Data returned: I, II, III

a = AIIGIYILRDN [CDH23_Y2949_D2954N]
b = RIVEIYSRRLR [GCH1_Y175_Q180R]
c = LNPFIYSLRNW [OR1A2_Y288]
Data request: Please list these sequences in decreasing order of SH2 binding enrichment. Use the labels to give the requested order.
Data returned: c, a, b

----------
experimental-target: Grb2 SH2 (UniProt P62993)
assay: SH2 binding enrichment of the phosphorylated peptide, bacterial display (enrichment ratio); higher = better substrate or ligand; peptides without Tyr show the background
observed-property: SH2 binding enrichment

Some entries whose results are on file:
Data request: # input sequence: EYDRLYEEYTR [PIK3R1_Y467] ; wanted: its SH2 binding enrichment
Data returned: 0.728

Data request: Return reported SH2 binding enrichment; argument: MPIPMYDGSQA [CARMIL1_Y637_A639G]
Data returned: 0.746

Data request: Data request, read-out SH2 binding enrichment, for HCEDGYPGGSD [CTNND1_Y221_Y217C]
Data returned: 1.06

Data request: Recorded SH2 binding enrichment of NNPAYYVLEGV [INPPL1_Y987] , please.
Data returned: 0.803

Data request: SH2 binding enrichment for SHLSSYTTHPQ [NIPBL_Y195_P192L] ?
Data returned: 0.714

A = NFGTNYRVGSS [CPO_Y278_K273N_YF]
B = LVMFISAIFGM [SCN1A_Y1684_Y1684S]
Data request: Hi, I'm comparing A with B and wondering which one has the bigger number for SH2 binding enrichment. Any idea? Give the chosen item's label as your response.
Data returned: B

----------
experimental-target: Fes (UniProt P07332)
Sequence (P07332 whole entry, looked up): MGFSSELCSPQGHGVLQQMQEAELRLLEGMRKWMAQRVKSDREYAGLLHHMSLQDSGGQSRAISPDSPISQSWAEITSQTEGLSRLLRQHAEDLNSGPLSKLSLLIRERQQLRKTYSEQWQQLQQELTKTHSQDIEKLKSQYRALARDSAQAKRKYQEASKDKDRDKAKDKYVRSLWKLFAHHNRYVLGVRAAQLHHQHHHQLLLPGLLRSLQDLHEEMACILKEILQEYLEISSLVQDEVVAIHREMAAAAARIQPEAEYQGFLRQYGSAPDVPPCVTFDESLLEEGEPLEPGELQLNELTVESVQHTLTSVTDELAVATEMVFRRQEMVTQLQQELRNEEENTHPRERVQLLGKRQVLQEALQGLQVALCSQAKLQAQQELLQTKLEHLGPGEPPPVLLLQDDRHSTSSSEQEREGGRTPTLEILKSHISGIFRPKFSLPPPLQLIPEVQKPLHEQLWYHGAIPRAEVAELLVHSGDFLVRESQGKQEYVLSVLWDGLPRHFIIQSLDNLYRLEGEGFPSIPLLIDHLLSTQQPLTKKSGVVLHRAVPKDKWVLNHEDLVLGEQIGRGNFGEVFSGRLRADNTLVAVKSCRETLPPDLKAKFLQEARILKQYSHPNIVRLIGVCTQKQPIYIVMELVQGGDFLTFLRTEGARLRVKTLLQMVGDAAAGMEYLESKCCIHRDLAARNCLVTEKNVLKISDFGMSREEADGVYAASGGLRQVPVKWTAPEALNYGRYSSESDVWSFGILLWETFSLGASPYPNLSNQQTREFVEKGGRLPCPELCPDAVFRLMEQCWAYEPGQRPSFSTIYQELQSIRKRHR
assay: phosphorylation enrichment, bacterial display (enrichment ratio); higher = better substrate or ligand; peptides without Tyr show the background
observed-property: phosphorylation enrichment
Lab note: jot down the number only; don't add units.

Check out these entries, answers already filled in.
Data request: Request body: readout phosphorylation enrichment, system Fes (UniProt P07332), query EYDRLYEEYTR [PIK3R1_Y467] . Return the value.
Data returned: 1.43

Data request: # value lookup — system Fes (UniProt P07332), readout phosphorylation enrichment, item AHLTEYLSTHY [UQCRC1_Y219_D215H]
Data returned: 0.639

Data request: Give phosphorylation enrichment (Fes (UniProt P07332)) of the following sequence: TLGPFYPSRLF [CRYAA_Y18]
Data returned: 0.784

---
Data request: # value lookup — system Fes (UniProt P07332), readout phosphorylation enrichment, item TAALWYIFSHT [ENG_Y612_YF]
Data returned: 1.5

Data request: Short answer please: phosphorylation enrichment, Fes (UniProt P07332), entry GIFKDYFRFNF [PLA2G2D_Y85_S80G_YF]
Data returned: 1.18

Data request: What is its phosphorylation enrichment for Fes (UniProt P07332)? Entry: GSERDYTYDEL [EIF2S2_Y174_E177D]
Data returned: 1.01

Data request: // map ADFFDYGHGLS [KHDRBS3_Y304_YF] to recorded phosphorylation enrichment (system: Fes (UniProt P07332))
Data returned: 0.905

----------
Form field: phosphorylation enrichment (one value per entry).
experimental-target: EPHB1 (UniProt P54762)
Sequence (P54762 whole entry, looked up): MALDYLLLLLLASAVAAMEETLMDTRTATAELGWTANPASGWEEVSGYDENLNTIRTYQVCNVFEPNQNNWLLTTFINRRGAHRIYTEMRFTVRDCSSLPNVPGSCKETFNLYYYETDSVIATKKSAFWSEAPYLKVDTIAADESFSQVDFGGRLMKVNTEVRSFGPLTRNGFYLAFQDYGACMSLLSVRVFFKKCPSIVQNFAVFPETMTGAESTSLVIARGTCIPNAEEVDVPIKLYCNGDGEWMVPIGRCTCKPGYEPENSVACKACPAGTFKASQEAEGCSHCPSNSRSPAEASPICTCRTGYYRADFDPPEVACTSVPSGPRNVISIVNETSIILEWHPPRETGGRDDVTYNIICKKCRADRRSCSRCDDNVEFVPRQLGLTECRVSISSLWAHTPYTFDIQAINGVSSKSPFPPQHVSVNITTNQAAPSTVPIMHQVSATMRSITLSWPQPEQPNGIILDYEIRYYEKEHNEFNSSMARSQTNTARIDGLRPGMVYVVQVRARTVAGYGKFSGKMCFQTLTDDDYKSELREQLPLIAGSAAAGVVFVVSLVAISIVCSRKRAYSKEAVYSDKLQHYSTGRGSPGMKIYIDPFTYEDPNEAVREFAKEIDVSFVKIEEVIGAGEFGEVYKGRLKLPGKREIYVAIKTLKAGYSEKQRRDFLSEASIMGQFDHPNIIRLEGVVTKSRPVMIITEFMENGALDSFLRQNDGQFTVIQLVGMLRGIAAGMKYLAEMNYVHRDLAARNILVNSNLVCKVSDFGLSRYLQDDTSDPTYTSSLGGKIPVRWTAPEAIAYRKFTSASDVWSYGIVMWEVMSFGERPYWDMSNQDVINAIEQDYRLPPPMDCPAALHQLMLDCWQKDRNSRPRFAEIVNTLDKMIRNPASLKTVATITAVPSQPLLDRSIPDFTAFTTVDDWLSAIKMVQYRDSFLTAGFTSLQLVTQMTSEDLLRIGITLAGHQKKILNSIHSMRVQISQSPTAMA
assay: phosphorylation enrichment, bacterial display (enrichment ratio); higher = better substrate or ligand; peptides without Tyr show the background
Just the number, please, no unit attached.

Please review the entries below; each comes with its answer.
Data request: Which phosphorylation enrichment value belongs to NKYTTYLPRLP [C9orf24_Y126] ?
Data returned: 0.454

Data request: Consider the sequence DAASNYARGHF [TUBA3E_Y103_YF] and give its measured phosphorylation enrichment.
Data returned: 0.502

Data request: Look at this sequence and give its reported phosphorylation enrichment. MFCASYDTKQE [F10_Y407_G406S]
Data returned: 0.536

Next:
Data request: Quick check: phosphorylation enrichment of KFGTNYRVGSS [CPO_Y278_YF] ?
Data returned: 0.422

Data request: Any idea what its phosphorylation enrichment is? The sequence is VVLVSYVPSSQ [SH2B1_Y624]
Data returned: 0.557

Data request: For TYEPNYGTVKR [RAPGEF6_Y1447_Q1452R] , what is its reported phosphorylation enrichment?
Data returned: 1.34

Data request: Which measured phosphorylation enrichment value corresponds to NFGTNYRVGSS [CPO_Y278_K273N_YF] ?
Data returned: 0.417

----------
Property: phosphorylation enrichment; scope: individual sequences
experimental-target: EPHB1 (UniProt P54762)
assay: phosphorylation enrichment, bacterial display (enrichment ratio); higher = better substrate or ligand; peptides without Tyr show the background
The answer should be a number; do not append a unit.

Data request: Can you share its phosphorylation enrichment? I mean this sequence: KDHPDYKYQRR [SOX10_Y171_P175R]
Data returned: 0.33

Data request: Record request: phosphorylation enrichment value, item RKTAKYLLKGE [CDH5_Y82_N79T]
Data returned: 0.915

Data request: Give the measured phosphorylation enrichment of LLEGKYEWQEV [CDKN1B_Y74_P69L] .
Data returned: 1.45

Data request: // returns reported phosphorylation enrichment for input KGFCGYSFDDI [TMEM230_Y110_R108C_YF]
Data returned: 0.613

Data request: Any idea what its phosphorylation enrichment is? The sequence is GRDVIYKGFED [NFU1_Y194_G190R]
Data returned: 0.528

Data request: Could you tell me which phosphorylation enrichment is on file for ESKKHYGYSLY [ANXA3_Y295_F291S] ?
Data returned: 0.413

Continuing:
Data request: Param item = DMQTLYVNTAA [SMCHD1_Y403] ; retrieve measured phosphorylation enrichment.
Data returned: 0.428

Data request: Dear colleague, I am looking for the recorded phosphorylation enrichment of the following sequence: PRDGEYFTLQI [TP53_Y327_L323R]
Data returned: 1.31

Data request: Look at this sequence and give its reported phosphorylation enrichment. EEQKKYFNATK [SCN5A_Y1494_M1498T_YF]
Data returned: 0.356

Data request: Bench note: what phosphorylation enrichment did VKANTYEKFWP [GATM_Y100_YF] show?
Data returned: 0.74

Data request: What does the data say about its phosphorylation enrichment? Entry: SNFRAYATEPH [TNNI3_Y29_YF]
Data returned: 0.399

----------
experimental-target: EPHB1 (UniProt P54762)
assay: phosphorylation enrichment, bacterial display (enrichment ratio); higher = better substrate or ligand; peptides without Tyr show the background
observed-property: phosphorylation enrichment
// keep it numeric: no unit symbol after the value

Data request: Record HKLSYYEYDFE [BTK_Y40] : what is its phosphorylation enrichment with EPHB1 (UniProt P54762)?
Data returned: 2.02

Data request: For EPHB1 (UniProt P54762), provide phosphorylation enrichment of RVILRYVNPGN [LAMA3_Y791_T796N] please.
Data returned: 0.836

Data request: Kindly state the measured phosphorylation enrichment obtained for RGEKQYLAAPL [ALOX12_Y295] with EPHB1 (UniProt P54762).
Data returned: 0.402

Data request: Give recorded phosphorylation enrichment with EPHB1 (UniProt P54762) for the following sequence: LNGDRYFKGIV [DCX_Y64_R59L]
Data returned: 2.3

Data request: Form entry - test system: EPHB1 (UniProt P54762); read-out: phosphorylation enrichment; sequence: YAADYYKLLGN [ROR2_Y646]
Data returned: 0.963

Data request: Enter reported phosphorylation enrichment observed with EPHB1 (UniProt P54762) for AKFPFYEKNKK [FOXL2_Y91]
Data returned: 0.407

Data request: Identify the measured phosphorylation enrichment of VKRNRYKDILP [PTPN12_Y64_K61R] for EPHB1 (UniProt P54762).
Data returned: 0.575

Data request: Find the measured phosphorylation enrichment: item KLFRVYCDMNT [FGB_Y269_P265L_YF] , target or system EPHB1 (UniProt P54762).
Data returned: 0.777

More entries:
Data request: Hi! What's the reported phosphorylation enrichment for SRDPFYEMLAA [CYTH1_Y382] on EPHB1 (UniProt P54762)?
Data returned: 3.5

Data request: Item HSKGIYYVQLE [MGAT4B_Y262_Q257H] with EPHB1 (UniProt P54762) - phosphorylation enrichment?
Data returned: 1.68

Data request: Item FKTPTYPFLLP [PLD2_Y578_YF] with EPHB1 (UniProt P54762) - phosphorylation enrichment?
Data returned: 0.74

Data request: Give the reported phosphorylation enrichment for ISDDKYGRIRL [ARCN1_Y310] (system: EPHB1 (UniProt P54762)).
Data returned: 0.357

Data request: Observed phosphorylation enrichment on EPHB1 (UniProt P54762) for KDYETYQPFQN [CTNND2_Y1157] , please.
Data returned: 3.29

Data request: Recorded phosphorylation enrichment for PKGTGCIKTEL [STAT1_Y701_Y701C] with EPHB1 (UniProt P54762), please?
Data returned: 0.774
